Target: factor XIIa (Homo sapiens)
Sequence (P00748 373-615 limits assumed): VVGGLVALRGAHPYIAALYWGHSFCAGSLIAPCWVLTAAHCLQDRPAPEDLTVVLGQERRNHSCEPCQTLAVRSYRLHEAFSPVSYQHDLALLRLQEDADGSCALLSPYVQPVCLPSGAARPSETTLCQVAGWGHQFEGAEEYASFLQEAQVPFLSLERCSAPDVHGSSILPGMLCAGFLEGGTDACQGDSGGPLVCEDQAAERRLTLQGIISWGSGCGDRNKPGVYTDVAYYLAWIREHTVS
Experiment: inhibition of factor XIIa, dissociation constant Ki
Give pKi for every item shown.
Numbers only, as −log10 of the molar value.

Below are worked cases with known answers.
- CC(=O)N1CCN(C(=O)C(Cc2cccc(C(=N)N)c2)NS(=O)(=O)c2ccc3c(c2)C(=O)c2ccccc2C3=O)CC1 (stereo not shown): 4.28
- COc1cc(C)c(S(=O)(=O)NC(Cc2cccc(C(=N)N)c2)C(=O)N2CCN(S(C)(=O)=O)CC2)c(C)c1C (stereo not shown): 3.20
- N=C(N)c1cccc(CC(NS(=O)(=O)c2ccc3ccccc3c2)C(=O)N2CCN(c3ccccn3)CC2)c1 (stereo not shown): 4.08
- Cc1cc(C)c(S(=O)(=O)N2CCN(C(=O)C(Cc3cccc(C(=N)N)c3)NS(=O)(=O)c3ccc4ccccc4c3)CC2)c(C)c1 (stereo not shown): 3.16
- CC(=O)N1CCN(C(=O)[C@H](Cc2cccc(C(=N)N)c2)NS(=O)(=O)c2ccc3ccccc3c2)CC1.Cl [Compound 2, hydrochloride]: 3.82
- N=C(N)c1cccc(CC(NS(=O)(=O)c2ccc3ccccc3c2)C(=O)N2CCN(S(=O)(=O)c3ccccc3)CC2)c1 (stereo not shown): 3.92

Now look at this entry.
Request: Please respond with reported pKi (system factor XIIa (Homo sapiens)) for N=C(N)c1cccc(CC(NS(=O)(=O)c2ccc3ccccc3c2)C(=O)N2CCN(S(=O)(=O)c3ccc4ccccc4c3)CC2)c1 (stereo not shown) .
Response: 4.05

---

assay: concentration in rat plasma in the anticoagulant study after rectal application; format: in vivo; details: plasma, rectal 5 mg/kg, 60 min
Give concentration at 1 h for every item shown.
One number for each entry, in ng/mL.

- CC(=O)N1CCN(C(=O)[C@H](Cc2cccc(C(=N)N)c2)NS(=O)(=O)c2ccc3ccccc3c2)CC1.Cl [Compound 2]: 160
- Cl.Cl.N=C(N)c1cccc(C[C@H](NS(=O)(=O)c2ccc3ccccc3c2)C(=O)N2CCN(CCO)CC2)c1 [Compound 3]: 462
- CN(C)C(=O)N1CCN(C(=O)[C@H](Cc2cccc(C(=N)N)c2)NS(=O)(=O)c2ccc3ccccc3c2)CC1 [Compound 6]: 362

Now look at this entry.
Request: Note concentration at 1 h for the compound shown: CS(=O)(=O)N1CCN(C(=O)[C@H](Cc2cccc(C(=N)N)c2)NS(=O)(=O)c2ccc3ccccc3c2)CC1.Cl [Compound 5]
Response: 65

---

biological target: thrombin (Bos taurus, UniProt P00735); details: read-out: Thrombin inhibition Ki; Table 7
Property: Ki (nM)
Give bare numbers, in nM.

* CC1(C)C2CCC1(CS(=O)(=O)N[C@@H](Cc1cccc(C(=N)N)c1)C(=O)N1CCN(S(C)(=O)=O)CC1)C(=O)C2 (single isomer, unassigned) [Compound 7] | 12

Parameter requested: Ki. Apply to each item below.
1. CC1(C)C2CCC1(CS(=O)(=O)N[C@@H](Cc1cccc(C(=N)N)c1)C(=O)N1CCN(S(C)(=O)=O)CC1)C(=O)C2 (single isomer, unassigned) [Compound 8]
2. CS(=O)(=O)N1CCN(C(=O)C(Cc2cccc(C(=N)N)c2)NS(=O)(=O)c2cccc3ccccc23)CC1 (stereo not drawn) [Compound 11]

Response:
31
26
